Attribution: paper PMC10147046

Assay: Dispersibility in water: particle size distribution over time (Malvern Mastersizer 2000)
Type: physicochemical
Conditions: polyphenol precipitate without protein, absence of trehalose; distribution at least bi-modal
property: Size of additional significant particle population after treatment

As a guide, the following entries are already answered.
compound: C[C@@H]1O[C@@H](OC[C@H]2O[C@@H](Oc3c(-c4ccc(O)c(O)c4)oc4cc(O)cc(O)c4c3=O)[C@H](O)[C@@H](O)[C@@H]2O)[C@H](O)[C@H](O)[C@H]1O
result: ~0.1 µm
--
compound: Oc1cc(O)c2c(c1)O[C@H](c1ccc(O)c(O)c1)[C@@H](O)C2 [Catechin, (+)-catechin]
result: ~0.1 µm

Now take the following compound into account.
Determine its reported Size of additional significant particle population after treatment: O=C1C[C@@H](c2ccc(O)cc2)Oc2cc(O)cc(O)c21 [Naringenin, (S)-naringenin] ~0.1 µm

====

A collection of molecules and their measured solubility at 24 h
Assay: Solubility of the powders in water (phosphate buffer), HPLC quantification
Format: physicochemical
Conditions: aqueous buffer, thermodynamic from solid; untreated (commercial) polyphenol; phosphate buffer pH 7.0, 25 °C
The reply should be a number in µg/mL, with the unit left off.

molecule: COc1ccc([C@@H]2CC(=O)c3c(O)cc(O[C@@H]4O[C@H](CO[C@@H]5O[C@@H](C)[C@H](O)[C@@H](O)[C@H]5O)[C@@H](O)[C@H](O)[C@H]4O)cc3O2)cc1O [Hesperidin]
property: solubility at 24 h
numeric-readout: 2
--
molecule: C[C@@H]1O[C@@H](OC[C@H]2O[C@@H](Oc3c(-c4ccc(O)c(O)c4)oc4cc(O)cc(O)c4c3=O)[C@H](O)[C@@H](O)[C@@H]2O)[C@H](O)[C@H](O)[C@H]1O [Rutin]
property: solubility at 24 h
numeric-readout: 110
--
molecule: Oc1cc(O)c2c(c1)O[C@H](c1ccc(O)c(O)c1)[C@@H](O)C2 [Catechin, (+)-catechin]
property: solubility at 24 h
numeric-readout: 1.5

Now take the following molecule into account.
Determine its reported solubility at 24 h: O=C1C[C@@H](c2ccc(O)cc2)Oc2cc(O)cc(O)c21 [Naringenin, (S)-naringenin] 2
